target_system: T1, IRP1 (iron regulatory protein 1) (rabbit, UniProt Q01059 1-889)
T1 sequence: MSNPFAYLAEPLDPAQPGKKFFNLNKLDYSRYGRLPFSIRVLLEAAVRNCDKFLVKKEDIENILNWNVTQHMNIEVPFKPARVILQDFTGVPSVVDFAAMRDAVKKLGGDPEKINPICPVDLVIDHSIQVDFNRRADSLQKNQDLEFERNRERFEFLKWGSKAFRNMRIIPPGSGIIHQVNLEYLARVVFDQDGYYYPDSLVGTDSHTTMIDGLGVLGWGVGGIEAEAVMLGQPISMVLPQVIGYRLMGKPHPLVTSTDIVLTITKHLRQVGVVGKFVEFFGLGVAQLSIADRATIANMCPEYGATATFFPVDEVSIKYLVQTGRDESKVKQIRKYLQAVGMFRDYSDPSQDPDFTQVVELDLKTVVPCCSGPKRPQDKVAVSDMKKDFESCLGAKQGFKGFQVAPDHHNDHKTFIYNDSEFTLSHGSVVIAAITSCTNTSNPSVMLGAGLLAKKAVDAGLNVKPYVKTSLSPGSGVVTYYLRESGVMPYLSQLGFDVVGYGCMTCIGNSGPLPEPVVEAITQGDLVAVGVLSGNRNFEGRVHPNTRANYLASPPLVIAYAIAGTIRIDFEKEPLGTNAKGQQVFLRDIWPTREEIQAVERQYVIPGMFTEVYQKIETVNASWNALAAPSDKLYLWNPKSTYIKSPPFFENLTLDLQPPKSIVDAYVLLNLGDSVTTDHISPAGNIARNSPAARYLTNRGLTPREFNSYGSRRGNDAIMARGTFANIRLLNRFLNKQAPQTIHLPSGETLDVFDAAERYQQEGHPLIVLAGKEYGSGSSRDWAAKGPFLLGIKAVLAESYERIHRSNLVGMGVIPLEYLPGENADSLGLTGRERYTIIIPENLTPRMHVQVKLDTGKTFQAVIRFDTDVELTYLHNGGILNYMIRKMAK
experimental_details: stopped-flow fluorescence anisotropy (koff/kon); 5 uM Mn2+; kon 35.2, koff 7.6; 40 mM HEPES pH 7.2, 100 mM KCl, 1 mM MgCl2 (Methods; not listed in the Figure 2 legend), 5% glycerol, 2% 2-mercaptoethanol, 25 C; RNA 50 nM with IRP1 0.05-1 uM; eIF4F 0.1 uM with RNA 0.1-0.5 uM
run_parameters: protein: recombinant; tags: Ni-chelate purified; hairpin with mid-helix bulge C and hexaloop
pKd: −log10 of the molar value.
experimental_endpoint: pKd

CCUCAUCUUUGUCAGUGCACAAAAUGGCG (structured_RNA) [ACO2 IRE-RNA, fluorescein labeled (FIACO2 IRE-RNA)] ... 6.66

Where these numbers come from: paper PMC4041422
